Target: GABA-A receptor; alpha-5/beta-3/gamma-2 (Homo sapiens, UniProt P18507+P28472+P31644)
Sequence (P18507 whole entry): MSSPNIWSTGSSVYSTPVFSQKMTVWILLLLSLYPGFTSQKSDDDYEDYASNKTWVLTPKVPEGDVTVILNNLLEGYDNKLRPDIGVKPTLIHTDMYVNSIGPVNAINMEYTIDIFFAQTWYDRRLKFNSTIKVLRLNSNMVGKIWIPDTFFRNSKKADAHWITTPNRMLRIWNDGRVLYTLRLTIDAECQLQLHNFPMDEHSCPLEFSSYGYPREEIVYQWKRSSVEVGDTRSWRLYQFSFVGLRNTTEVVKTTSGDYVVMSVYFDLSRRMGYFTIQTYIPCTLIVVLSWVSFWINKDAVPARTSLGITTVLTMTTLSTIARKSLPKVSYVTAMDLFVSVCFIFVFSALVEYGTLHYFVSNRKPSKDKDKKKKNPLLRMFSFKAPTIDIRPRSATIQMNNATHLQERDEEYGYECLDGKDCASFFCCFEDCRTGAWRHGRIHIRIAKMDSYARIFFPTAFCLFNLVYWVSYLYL
Sequence (P28472 whole entry): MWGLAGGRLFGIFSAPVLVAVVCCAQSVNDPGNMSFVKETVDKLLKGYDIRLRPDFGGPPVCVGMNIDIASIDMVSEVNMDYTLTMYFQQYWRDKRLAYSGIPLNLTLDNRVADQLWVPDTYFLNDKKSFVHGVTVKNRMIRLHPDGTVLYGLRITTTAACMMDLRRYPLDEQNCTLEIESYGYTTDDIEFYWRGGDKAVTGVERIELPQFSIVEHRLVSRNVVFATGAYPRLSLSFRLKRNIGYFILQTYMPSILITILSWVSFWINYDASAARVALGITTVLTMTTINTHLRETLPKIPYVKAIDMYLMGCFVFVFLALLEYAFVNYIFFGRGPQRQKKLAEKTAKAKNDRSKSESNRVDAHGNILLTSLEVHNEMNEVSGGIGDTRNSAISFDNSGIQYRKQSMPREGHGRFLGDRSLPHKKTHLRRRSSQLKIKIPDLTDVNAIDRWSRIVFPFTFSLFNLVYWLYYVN
Sequence (P31644 whole entry): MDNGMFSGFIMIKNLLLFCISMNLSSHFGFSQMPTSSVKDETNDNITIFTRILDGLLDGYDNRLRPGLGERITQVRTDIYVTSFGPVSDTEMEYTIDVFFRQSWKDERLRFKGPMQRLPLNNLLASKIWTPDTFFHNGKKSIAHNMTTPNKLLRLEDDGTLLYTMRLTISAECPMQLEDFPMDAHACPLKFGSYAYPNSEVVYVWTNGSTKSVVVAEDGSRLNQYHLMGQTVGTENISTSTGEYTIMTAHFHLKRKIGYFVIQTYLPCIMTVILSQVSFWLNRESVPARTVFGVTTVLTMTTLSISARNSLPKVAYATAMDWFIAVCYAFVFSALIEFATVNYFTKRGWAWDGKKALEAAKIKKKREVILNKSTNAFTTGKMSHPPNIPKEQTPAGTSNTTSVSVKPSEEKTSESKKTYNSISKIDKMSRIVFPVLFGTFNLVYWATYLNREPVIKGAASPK
Assay: Displacement of [3H]- Ro 15-1788 binding from human GABA-A receptor alpha-5-beta-3-gamma-2 subunits
result type: pKi
Scale for pKi: -log10 of concentration given in mol/L; no unit attached.

Need pKi, item CCSc1sc(-c2cc[nH]n2)c2c1C(=O)CC(C)(C)C2
8.80

Need pKi, item CC1(C)CC(=O)c2c(SSc3nccs3)sc(-c3cc[nH]n3)c2C1
8.85

Need pKi, item CC1(C)CC(=O)c2c(SCCO)sc(-c3nccs3)c2C1
8.80

Need pKi, item CSc1sc(-c2ccccn2)c2c1C(=O)CC(C)(C)C2
8.77

Need pKi, item CSc1sc(-c2cccnc2)c2c1C(=O)CC(C)(C)C2
8.24

Need pKi, item CCc1c(C(=O)OC)ncc2[nH]c3cc(OC)c(OC)cc3c12
8.66

Need pKi, item CSc1sc(-c2cc[nH]n2)c2c1C(=O)CC(C)(C)C2
8.28

Need pKi, item CC(C)Sc1sc(-c2cc[nH]n2)c2c1C(=O)CC(C)(C)C2
8.70

Need pKi, item CC1(C)CC(=O)c2c(SCCO)sc(-c3ccccn3)c2C1
9.30

Need pKi, item CC1(C)CC(=O)c2c(SCCO)sc(-c3cc[nH]n3)c2C1
8.54

Need pKi, item CSc1sc(-c2ccncc2)c2c1C(=O)CC(C)(C)C2
8.04

Need pKi, item CSc1sc(-c2nccs2)c2c1C(=O)CC(C)(C)C2
8.66
